# Read-out: Interleukin 2 (IL2), IL2 (gene 3558)
# Protocol: BSK_BT_xIL2: BioMAP Diversity Plus: BT Assay for Interleukin 2 (IL2) Biomarker Activity (AID 2284245)
# Reported conditions: primary human B cells with PBMC
Calls of active or inactive are those of the source. The calls were made as follows: active = hit-call score of the fitted dose curve at least 0.9, where 1 is the maximum; inactive = score below 0.9.
Response enum: t (active), f (inactive)

compound=FC(F)(F)C(F)(F)C(F)(F)C(F)(F)C(F)(F)C(F)(F)C(F)(F)Br category=f
compound=O=C(O)C(F)(F)C(F)(F)C(F)(F)C(F)(F)C(F)(F)C(F)(F)C(F)(F)C(F)(F)C(F)(F)C(F)F category=f
compound=FC(F)(F)C(F)(F)C(F)(F)N(C(F)(F)C(F)(F)C(F)(F)F)C(F)(F)C(F)(F)C(F)(F)F category=f
compound=O=S(=O)(O)C(F)(F)C(F)(F)C(F)(F)C(F)(F)C(F)(F)C(F)(F)C(F)(F)F category=f
compound=OCC(F)(F)C(F)(F)C(F)(F)F category=f
compound=CCCCOCCOCCOC(=O)CCCCC(=O)OCCOCCOCCCC category=f
compound=CCc1ccc(C(c2ccc(CC)cc2)C(Cl)Cl)cc1 category=t
compound=O=C(O)C(F)(F)C(F)(F)F category=f

Which outcome was entered for the compound OCC(F)(F)C(F)(F)C(F)(F)C(F)(F)C(F)(F)C(F)(F)F in this test?
f

What classification did FC(F)(F)C(F)(F)C(F)(F)CI end up with in this test?
f

Tell me the assay call for C=CC(F)(F)C(F)(F)C(F)(F)C(F)(F)C(F)(F)C(F)(F)C(F)(F)C(F)(F)C=C please.
f

Tell me the recorded outcome of this test for FC1CC(F)(F)C(F)(F)C1(F)F (centres undefined) .
f

What is the recorded call for this compound in the test? O=C(O)C(F)(F)C(F)(F)C(F)(F)C(F)(F)C(F)(F)C(F)(F)C(F)(F)C(F)(F)Cl
f

I'd appreciate the recorded outcome for CCCCCCCCCCCCCCCC[N+](C)(C)Cc1ccccc1 from this test.
t

Per the assay record, what outcome was assigned to CC(=O)Nc1ccc(N=Nc2cc(C)ccc2O)cc1 ?
f

----------
# Read-out: Thrombomodulin, THBD (gene 7056)
# Protocol: BSK_3C_Thrombomodulin: BioMAP Diversity Plus: 3C Assay for Thrombomodulin Biomarker Activity (AID 2283029)
# Reported conditions: primary human endothelial cells (HUVEC); actives raise or lower the signal
# Protocol: BSK_3C is a cell-based, multiplexed-readout assay that uses umbilical vein endothelium, a human vascular primary cell, with measurements taken at 24 hours after chemical dosing in a 96-well plate.BSK_3C_Thrombomodulin is an assay component measured in the BSK_3C assay. It measures Thrombomodulin antibody related to regulation of gene expression using ELISA technology.Data from the assay component BSK_3C_Thrombomodulin was analyzed into 1 assay endpoint. […]
Active and inactive are the calls of the source. The calls were made as follows: active = hit-call score of the fitted dose curve at least 0.9, where 1 is the maximum; inactive = score below 0.9.
Mark one answer only. Choices: T (active), F (inactive)

Observe how each entry below is paired with its result.
molecule=CCc1c(Br)c(Br)c(Br)c(Br)c1Br category=F
molecule=FC(F)(F)C(F)(F)C(F)(F)C(F)(F)C(F)(F)C(F)(F)C(F)(F)C(F)(F)F category=F
molecule="CCCCCCC(C)OC(=O)CCCCC(=O)OC(C)CCCCCC (stereo unspecified)" category=F
molecule=CCCCCCCCC(F)(F)C(F)(F)C(F)(F)C(F)(F)C(F)(F)C(F)(F)F category=F
molecule=CCCCCCCCCCCCCCCC[N+](C)(C)Cc1ccccc1 category=T
molecule=OCC(F)(F)C(F)(F)C(F)(F)C(F)F category=F
molecule=O=C(O)C(F)(F)C(F)(F)F category=F
molecule=C=C(C)C(=O)OCC(F)(F)C(F)(F)C(F)(F)C(F)(F)C(F)(F)C(F)(F)C(F)(F)F category=F
molecule=C=CC(F)(F)C(F)(F)C(F)(F)C(F)(F)C(F)(F)C(F)(F)C(F)(F)C(F)(F)C=C category=F
molecule=O=S(=O)(OCCOC(F)(F)F)C(F)(F)F category=F

Could you now consider this next molecule?
Hey, what did the test say about C=CC(F)(F)C(F)(F)C(F)(F)C(F)(F)C(F)(F)C(F)(F)C(F)(F)C(F)(F)F ?
F

----------
# Assay system: Cellular tumor antigen p53 (Homo sapiens) (UniProt P04637)
# Sequence (P04637 whole entry, looked up): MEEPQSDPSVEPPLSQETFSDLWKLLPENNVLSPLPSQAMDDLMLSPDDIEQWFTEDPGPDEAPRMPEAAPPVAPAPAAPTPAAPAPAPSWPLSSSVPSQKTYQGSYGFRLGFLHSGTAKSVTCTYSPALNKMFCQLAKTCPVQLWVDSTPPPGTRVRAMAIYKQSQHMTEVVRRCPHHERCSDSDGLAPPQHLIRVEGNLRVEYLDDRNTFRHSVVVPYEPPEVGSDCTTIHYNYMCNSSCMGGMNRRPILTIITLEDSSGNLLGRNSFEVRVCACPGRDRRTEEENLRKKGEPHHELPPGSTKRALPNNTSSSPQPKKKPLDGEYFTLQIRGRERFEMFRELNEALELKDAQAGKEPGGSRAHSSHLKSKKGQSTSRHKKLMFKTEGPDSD
# Protocol: ATG_p53_CIS: Attagene CIS-FACTORIAL HepG2 Assay for human p53 Transcription Factor (AID 2282994)
# Reported conditions: HepG2 p53 cis-element reporter, Attagene mRNA; actives raise or lower the signal
Active and inactive are the calls of the source. How the source made its calls: active means hit-call score of the fitted dose curve at least 0.9, where 1 is the maximum; inactive means score below 0.9.
Field 'call' accepts active, inactive

The examples below pair each entry with its known result.
molecule=C(=C(c1ccccc1)c1ccccc1)c1ccccc1 assay_system="Cellular tumor antigen p53 (Homo sapiens) (UniProt P04637)" category=inactive
molecule=OCC(F)(F)C(F)(F)C(F)(F)F assay_system="Cellular tumor antigen p53 (Homo sapiens) (UniProt P04637)" category=inactive
molecule=O=C(O)C(F)(F)C(F)(F)C(F)(F)C(F)(F)C(F)(F)C(F)(F)C(F)(F)C(F)(F)C(F)(F)C(F)(F)C(F)(F)C(F)(F)F assay_system="Cellular tumor antigen p53 (Homo sapiens) (UniProt P04637)" category=active
molecule=CCCCCCCCC(F)(F)C(F)(F)C(F)(F)C(F)(F)C(F)(F)C(F)(F)F assay_system="Cellular tumor antigen p53 (Homo sapiens) (UniProt P04637)" category=inactive
molecule=C=CC(=O)OCC(F)(F)C(F)(F)C(F)(F)C(F)(F)COC(=O)C=C assay_system="Cellular tumor antigen p53 (Homo sapiens) (UniProt P04637)" category=active

What was the test verdict on c1ccc(B(c2ccccc2)c2ccccc2)cc1 ?
inactive

----------
# Protocol: ATG_DR4_LXR_CIS: Attagene CIS-FACTORIAL HepG2 Assay for human Liver X Receptor (LXR), DR4 submotif (AID 2282929)
# Reported conditions: HepG2 Attagene DR4 cis-reporter, mRNA transcription; actives raise or lower the signal
Calls of active or inactive are those of the source. How the source made its calls: active means hit-call score of the fitted dose curve at least 0.9, where 1 is the maximum; inactive means score below 0.9.
Outcome measure: AC50

These recorded examples may help you get a feel for the data.
compound=O=S(=O)(OCC(F)F)C(F)(F)F result=inactive
compound=N=C(N)C(F)(F)C(F)(F)C(F)(F)C(F)(F)C(F)(F)C(F)(F)C(F)(F)F result="211 µM (active)"
compound=Nc1ccc(Oc2cccc(Oc3ccc(N)cc3)c2)cc1 result="25.4 µM (active)"
compound="CC(CCl)OP(=O)(OC(C)CCl)OC(C)CCl (stereo not given)" result=inactive
compound=NC(=O)C(F)(F)C(F)(F)C(F)(F)C(F)(F)F result=inactive
compound=C=C(C)C(=O)OCC(F)(F)C(F)(F)C(F)(F)C(F)(F)C(F)(F)C(F)(F)C(F)(F)F result=inactive

Please go through the list and note AC50 for each compound.
1. FC(F)(F)C(F)(F)CNCC(F)(F)C(F)(F)F
2. O=C(O)C(F)(F)C(F)(F)F
3. CCCCOCCOCCOC(=O)CCCCC(=O)OCCOCCOCCCC
4. CO[Si](OC)(c1ccccc1)c1ccccc1
5. Cc1cc(C)cc(O)c1
6. CC(C)(C)c1ccc(OC2CCCCC2O)cc1 (stereo not given)
7. CCO[Si](CCC(F)(F)C(F)(F)C(F)(F)C(F)(F)C(F)(F)C(F)(F)F)(OCC)OCC

["inactive", "inactive", "inactive", "inactive", "inactive", "inactive", "inactive"]

Parameter requested: AC50. Apply to each item below.
1. CCCCCCC(C)OC(=O)CCCCC(=O)OC(C)CCCCCC (stereo not given)
2. FC(F)(F)C(F)(F)C(F)(F)C(F)(F)C(F)(F)C(F)(F)C(F)(F)Br
3. Oc1ccc(Nc2ccccc2)cc1
4. CCCCCCCOC(=O)c1ccccc1C(=O)OCCCCCCC
5. O=C(C=Cc1ccccc1)OCC=Cc1ccccc1
6. COC(OC(C)=O)c1ccccc1 (stereo not given)
7. C#C[C@]1(O)CC[C@H]2[C@@H]3CCc4cc(OC)ccc4[C@H]3CC[C@@]21C
8. C=CC/C=C/C/C=C/C/C=C/C

inactive
inactive
inactive
inactive
24.3 µM (active)
inactive
inactive
inactive

Record AC50 for all entries; do not skip any.
1. FC(F)(F)C(F)(F)C(F)(F)C(F)(F)C(F)(F)C(F)(F)C(F)(F)C(F)(F)CCS
2. CCCCCCCCCCCCCCCC[N+](C)(C)Cc1ccccc1
3. FC(F)(F)C(F)(F)C(F)(F)C(F)(F)C(F)(F)C(F)(F)CCS
4. Cc1cccc(N(C)C)c1

inactive
24.9 µM (active)
inactive
inactive

Provide AC50 for all items below, preserving their order.
1. CC/C=C\CCOC(=O)c1ccccc1
2. CCC(=O)OCCc1ccccc1
3. FC(F)(F)C(F)(F)C(F)(F)N(C(F)(F)C(F)(F)C(F)(F)F)C(F)(F)C(F)(F)C(F)(F)F
4. OCCCC(F)(F)C(F)(F)C(F)(F)F
5. O=C(CC(=O)C(F)(F)C(F)(F)F)C(F)(F)F
6. C=CC(F)(F)C(F)(F)C(F)(F)C(F)(F)C(F)(F)C(F)(F)C(F)(F)C(F)(F)C=C
7. O=C(O)C(F)(F)C(F)(F)C(F)F
8. CC(Cc1ccc(O)c(O)c1)C(C)Cc1ccc(O)c(O)c1 (stereo not given)

["inactive", "inactive", "inactive", "inactive", "inactive", "inactive", "inactive", "inactive"]

Hi! Can you tell me AC50 for each of these compounds?
1. O=C(O)C(F)(F)C(F)(F)C(F)(F)F
2. CCN(CC)c1ccc2c(C)cc(=O)oc2c1
3. FC(F)(F)C(F)(F)C(F)(F)C(F)(F)C(F)(F)CCI
4. Cc1ccc(S(=O)(=O)NCl)cc1
5. FC(F)(Br)C(F)(F)C(F)(F)C(F)(F)C(F)(F)C(F)(F)Br

inactive
inactive
inactive
inactive
inactive

Provide reported AC50 for each item, in the same order as listed.
1. FC(F)(F)C(F)(F)C(F)(F)C(F)(F)CCI
2. O=C(O)C(F)(F)C(F)(F)C(F)(F)C(F)(F)C(F)(F)C(F)(F)C(F)(F)C(F)(F)C(F)(F)C(F)(F)C(F)(F)C(F)(F)F

1. inactive
2. inactive

Need AC50 for each of these compounds.
1. CCCCCCS
2. OCC(F)(F)C(F)(F)C(F)(F)F
3. O=C(O)C=C(C(F)(F)F)C(F)(F)F
4. c1ccc(B(c2ccccc2)c2ccccc2)cc1

inactive
inactive
inactive
34.2 µM (active)

I'm hoping you can list AC50 for every compound here, please.
1. c1ccc(-c2ccccc2-c2ccccc2)cc1
2. C(=C(c1ccccc1)c1ccccc1)c1ccccc1
3. CC(C)(C)C(=O)CC(=O)C(F)(F)C(F)(F)C(F)(F)F
4. FC(F)(F)C(F)(F)C(F)(F)CI
5. C=CC(F)(F)C(F)(F)C(F)(F)C(F)(F)C(F)(F)C(F)(F)C(F)(F)C(F)(F)F
6. O=C(Cl)C(F)(F)C(F)(F)C(F)(F)C(F)(F)C(F)(F)C(F)(F)C(F)(F)C(F)(F)F

["27.7 µM (active)", "59 µM (active)", "inactive", "inactive", "inactive", "13 µM (active)"]
